Data provenance is patent US10407467B2.

- Test system: HK-2 cell line
- assayName: In vitro renal cell toxicity assay (resazurin reduction)
- Assay type: cell-based, human
Bridge positions count the residues as written; N and C are the ends. Square brackets hold non-standard residues; d marks the D form. Peptide text beside a SMILES is read from it. * marks the point of attachment. ξ: configuration not given here. ξβ3hGly(cHex) = NC(CC(=O)*)C1CCCCC1; Thr(3ξ) = CC(O)[C@H](N)C(=O)O; Dab = NCC[C@H](N)C(=O)O; X3 = O=C([C@H]1CCCNC1)*; Dap = NC[C@H](N)C(=O)O
Hi there, I'd appreciate the recorded HK-2 IC50 rel to PMB for every entry that follows.
Reply briefly: the number, and no unit.

Requested field: HK-2 IC50 rel to PMB. Item: CC(C)C[C@@H]1NC(=O)[C@@H](Cc2ccccc2)NC(=O)[C@H](CCN)NC(=O)[C@@H](NC(=O)[C@H](CCN)NC(=O)[C@@H](NC(=O)[C@H](CN)NC(=O)CC(N)C2CCCCC2)C(C)O)CCNC(=O)[C@H](C(C)O)NC(=O)[C@H](CCN)NC(=O)[C@H](CCN)NC1=O (stereo partly drawn) [Example A6] ({ξβ3hGly(cHex)}-[Dap][Thr(3ξ)][Dab][Dab][Dab][dF]L[Dab][Dab][Thr(3ξ)]; lactam 4-C)
3

Requested field: HK-2 IC50 rel to PMB. Item: CC(C)C[C@@H]1NC(=O)[C@@H](Cc2ccccc2)NC(=O)[C@H](CCN)NC(=O)[C@@H](NC(=O)[C@H](CCN)NC(=O)[C@@H](NC(=O)[C@H](CCN)NC(=O)[C@H]2CCCNC2)C(C)O)CCNC(=O)[C@H](C(C)O)NC(=O)[C@H](CCN)NC(=O)[C@H](CCN)NC1=O (stereo partly drawn) [Example A22] (X3-[Dab][Thr(3ξ)][Dab][Dab][Dab][dF]L[Dab][Dab][Thr(3ξ)]; lactam 4-C)
7.4

Requested field: HK-2 IC50 rel to PMB. Item: CCCCCC(N)CC(=O)N[C@H](C(=O)N[C@@H](CCN)C(=O)N[C@H]1CCNC(=O)[C@H](C(C)O)NC(=O)[C@H](CCN)NC(=O)[C@H](CCN)NC(=O)[C@H](CC(C)C)NC(=O)[C@@H](Cc2ccccc2)NC(=O)[C@H](CCN)NC1=O)C(C)O (single isomer, unassigned; isomer 2)
9.7
